What Biodistribution of radioactivity, spleen was measured for each of the following?
- Assay method text: In vivo biodistribution in normal ICR mice
- Protocol conditions: i.v., 10 min
One number for each entry, in % injected dose per gram.

Check out these entries, answers already filled in.
FCCOc1ccc(OCc2ccc([125I])cc2)cc1 [[^125I]7a]
1.32
FCCOc1ccc(COc2ccc([125I])cc2)cc1 [[^125I]12a]
1.29
[18F]CCOc1ccc(OCc2ccc(I)cc2)cc1 [[^18F]7a]
3.33

From here, focus on the item given below.
q: Tell me its Biodistribution of radioactivity, spleen given [18F]CCOc1ccc(COc2ccc(I)cc2)cc1 [[^18F]12a] as the entry.
a: 3.55

----------
- Assay method text: In vivo biodistribution in normal ICR mice
- Protocol conditions: i.v., 10 min
Assign Biodistribution of radioactivity, liver to each entry below.
Give bare numbers, in % injected dose per gram.

Example molecules with recorded Biodistribution of radioactivity, liver:
[18F]CCOc1ccc(COc2ccc(I)cc2)cc1 [[^18F]12a]
4.74
FCCOc1ccc(COc2ccc([125I])cc2)cc1 [[^125I]12a]
12.07
FCCOc1ccc(OCc2ccc([125I])cc2)cc1 [[^125I]7a]
14.43

We now examine a further molecule.
q: Answer with reported Biodistribution of radioactivity, liver of [18F]CCOc1ccc(OCc2ccc(I)cc2)cc1 [[^18F]7a]
a: 6.07

----------
Kindly supply the reported Percentage of Parent tracer, Plasma values for the records listed here.
- Assay method text: In vivo metabolism (biostability), HPLC analysis of organ samples
- Protocol conditions: ICR mice, i.v., post-injection time 30 min
Dear colleague, please send the value followed by its unit.

FCCOc1ccc(COc2ccc([125I])cc2)cc1 [[^125I]12a]
26.3%
[18F]CCOc1ccc(COc2ccc(I)cc2)cc1 [[^18F]12a]
34.1%
[18F]CCOc1ccc(OCc2ccc(I)cc2)cc1 [[^18F]7a]
21.8%

q: Write down Percentage of Parent tracer, Plasma measured for item FCCOc1ccc(OCc2ccc([125I])cc2)cc1 [[^125I]7a]
a: 22.1%

----------
- Assay method text: In vivo biodistribution in normal ICR mice
- Protocol conditions: i.v.
- Description: Histograms of brain and intestine uptake were presented in Fig. 6 for comparison, while detailed data concerning the in vivo biodistribution in normal ICR mice were collected in Table S3 in Supplementary information. […] [^125I]7a and [^125I]12a were rapidly cleared from the normal brain, with only small amounts of radioactivity remaining at 60 min post-injection (0.55% ID/g for [^125I]7a and 0.37% ID/g for [^125I]12a). […]
Please go through the items and note down their brain2 min/brain60 min ratio.
Numbers only.

[18F]CCOc1ccc(OCc2ccc(I)cc2)cc1 [[^18F]7a]
1.8

Batch request: brain2 min/brain60 min ratio per item, same order as input.
1. [18F]CCOc1ccc(COc2ccc(I)cc2)cc1 [[^18F]12a]
2. FCCOc1ccc(OCc2ccc([125I])cc2)cc1 [[^125I]7a]
3. FCCOc1ccc(COc2ccc([125I])cc2)cc1 [[^125I]12a]

a:
[1.6, 12.8, 14.2]

----------
- Assay method text: In vivo metabolism (biostability), HPLC analysis of organ samples
- Protocol conditions: ICR mice, i.v., post-injection time 30 min
Exercise: state measured Percentage of Parent tracer, Feces for each of the compounds provided.
Reply with the number, then its unit.

# annotated cases, reported Percentage of Parent tracer, Feces shown
[18F]CCOc1ccc(OCc2ccc(I)cc2)cc1 [[^18F]7a]
10.5%
FCCOc1ccc(COc2ccc([125I])cc2)cc1 [[^125I]12a]
0.0%
FCCOc1ccc(OCc2ccc([125I])cc2)cc1 [[^125I]7a]
2.0%

# next compound below
q: Report measured Percentage of Parent tracer, Feces; entry is [18F]CCOc1ccc(COc2ccc(I)cc2)cc1 [[^18F]12a]
a: 16.8%

The measurements presented in this section are drawn from paper PMC4501006.
